Reference for the values: paper PMC7414031

- TEST SUMMARY: in vitro
- Format: cell-based, human
- EXPERIMENTAL PARAMETERS: human
Peptide text beside a SMILES is read from it.
OUTCOME MEASURE: hemolysis at 1 h, 150 µM (%)

INSERT INTO assay_data (molecule, outcome_measure, recorded_number) VALUES
  ('CC(C)C[C@H](NC(=O)[C@H](Cc1cccc2ccccc12)NC(=O)[C@H](Cc1ccccc1)NC(=O)[C@@H](N)Cc1cccc2ccccc12)C(=O)N[C@@H](CCCCN)C(=O)N[C@@H](CCCCN)C(=O)N[C@@H](CCCCN)C(N)=O [Compound 5] (HELM PEPTIDE1{[N[C@@H](Cc1cccc2ccccc12)C(=O)[*:2]].F.[O=C([C@H](Cc1cccc2ccccc12)N[*:1])[*:2]].L.K.K.K.[am]}$$$$V2.0)', 'hemolysis at 1 h, 150 µM', 36),
  ('CC(C)C[C@@H](NC(=O)[C@H](CCCCN)NC(=O)[C@@H](Cc1cccc2ccccc12)NC(=O)[C@@H](Cc1ccccc1)NC(=O)[C@H](N)Cc1cccc2ccccc12)C(=O)N[C@@H](CCCCN)C(=O)N[C@@H](CCCCN)C(N)=O [Compound 8] (HELM PEPTIDE1{[N[C@H](Cc1cccc2ccccc12)C(=O)[*:2]].[dF].[O=C([C@@H](Cc1cccc2ccccc12)N[*:1])[*:2]].K.[dL].K.K.[am]}$$$$V2.0)', 'hemolysis at 1 h, 150 µM', 34.3),
  ('CC(C)C[C@@H](NC(=O)[C@H](CCCCN)NC(=O)[C@H](CCCCN)NC(=O)[C@@H](N)CCCCN)C(=O)N[C@H](Cc1ccc2ccccc2c1)C(=O)N[C@H](Cc1ccccc1)C(=O)N[C@H](Cc1ccc2ccccc2c1)C(N)=O [Compound 12] (HELM PEPTIDE1{K.K.K.[dL].[O=C([C@@H](Cc1ccc2ccccc2c1)N[*:1])[*:2]].[dF].[O=C([C@@H](Cc1ccc2ccccc2c1)N[*:1])[*:2]].[am]}$$$$V2.0)', 'hemolysis at 1 h, 150 µM', 43.5);

---

- TEST SUMMARY: in vitro
- Format: cell-based, human
- EXPERIMENTAL PARAMETERS: human
Square brackets hold non-standard residues; d marks the D form. Peptide text beside a SMILES is read from it. N(1-naphthylmethyl)Gly = O=C(O)CNCc1cccc2ccccc12; Nphe = O=C(O)CNCc1ccccc1; NBuGly = CCCCNCC(=O)O
# Lookup of reported hemolysis at 1 h, 150 µM keyed by entry
OUTCOME MEASURE: hemolysis at 1 h, 150 µM (%)

INSERT INTO results (compound, outcome_measure, unit_abbreviation, recorded_number) VALUES
  ('CCCCN(CC(=O)N(CC(=O)N(CC(=O)N(CC(N)=O)Cc1cccc2ccccc12)Cc1ccccc1)Cc1cccc2ccccc12)C(=O)[C@H](CCCCN)NC(=O)[C@H](CCCCN)NC(=O)[C@@H](N)CCCCN [Compound 15] (H-KKK[NBuGly][N(1-naphthylmethyl)Gly][Nphe][N(1-naphthylmethyl)Gly]-NH2)', 'hemolysis at 1 h, 150 µM', '%', 94.2),
  ('CC(C)C[C@H](NC(=O)[C@H](CCCCN)NC(=O)[C@H](Cc1cccc2ccccc12)NC(=O)[C@H](Cc1ccccc1)NC(=O)[C@@H](N)Cc1cccc2ccccc12)C(=O)N[C@@H](CCCCN)C(=O)N[C@@H](CCCCN)C(N)=O [Compound 16] (HELM PEPTIDE1{[N[C@@H](Cc1cccc2ccccc12)C(=O)[*:2]].F.[O=C([C@H](Cc1cccc2ccccc12)N[*:1])[*:2]].K.L.K.K.[am]}$$$$V2.0)', 'hemolysis at 1 h, 150 µM', '%', 55.5);
